# System: PC12 mHTT^Q103 cells
# ASSAY_TEXT: Rescue of PC12 cells from mHTT^Q103 induced cell death (Alamar blue viability)
# Type: cell-based
# CONDITION_INFO: Rattus norvegicus, PC-12; Table 5; read-out: Cell Viability Assay EC50
pEC50: −log10 of the molar value.
Entries and their pEC50
OUTCOME_MEASURE: pEC50

INSERT INTO assay_data (molecule_smiles, subject_of_test, outcome_measure, bound_operator, recorded_result) VALUES
  ('CC(C)(C)OC(=O)N1CCC(COc2nsc3ccccc23)CC1', 'PC12 mHTT^Q103 cells', 'pEC50', '<', 4.30),
  ('O=C(C1CC1)N1CCN(C(=O)n2sc3ccccc3c2=O)CC1', 'PC12 mHTT^Q103 cells', 'pEC50', '<', 4.30),
  ('O=c1c2ccccc2sn1CN1CCN(Cn2sc3ccccc3c2=O)CC1', 'PC12 mHTT^Q103 cells', 'pEC50', '=', 6.76),
  ('O=c1[nH]sc2c(F)cccc12', 'PC12 mHTT^Q103 cells', 'pEC50', '=', 5.03),
  ('Cc1ccc(-n2sc3ccccc3c2=O)c(Br)c1', 'PC12 mHTT^Q103 cells', 'pEC50', '=', 5.80);
